- assayed_target: von Hippel-Lindau disease tumor suppressor/Estrogen receptor (Homo sapiens) (UniProt P03372+P40337)
- Sequence (P03372 whole entry, looked up): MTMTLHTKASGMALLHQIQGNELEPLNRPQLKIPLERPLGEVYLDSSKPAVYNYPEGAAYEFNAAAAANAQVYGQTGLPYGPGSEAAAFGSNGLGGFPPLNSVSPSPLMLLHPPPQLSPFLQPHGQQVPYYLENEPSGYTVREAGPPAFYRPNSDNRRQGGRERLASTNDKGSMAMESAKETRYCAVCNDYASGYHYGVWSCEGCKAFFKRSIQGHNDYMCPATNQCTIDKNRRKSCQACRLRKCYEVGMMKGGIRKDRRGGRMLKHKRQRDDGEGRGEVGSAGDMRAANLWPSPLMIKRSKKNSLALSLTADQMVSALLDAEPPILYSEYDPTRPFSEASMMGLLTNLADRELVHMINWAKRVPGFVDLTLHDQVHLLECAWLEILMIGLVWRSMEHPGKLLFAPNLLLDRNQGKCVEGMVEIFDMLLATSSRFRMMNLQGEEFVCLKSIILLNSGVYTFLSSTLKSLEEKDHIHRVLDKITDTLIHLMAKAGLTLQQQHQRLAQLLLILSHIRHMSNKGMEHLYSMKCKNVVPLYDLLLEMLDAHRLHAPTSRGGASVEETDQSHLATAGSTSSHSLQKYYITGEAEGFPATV
- Sequence (P40337 whole entry, looked up): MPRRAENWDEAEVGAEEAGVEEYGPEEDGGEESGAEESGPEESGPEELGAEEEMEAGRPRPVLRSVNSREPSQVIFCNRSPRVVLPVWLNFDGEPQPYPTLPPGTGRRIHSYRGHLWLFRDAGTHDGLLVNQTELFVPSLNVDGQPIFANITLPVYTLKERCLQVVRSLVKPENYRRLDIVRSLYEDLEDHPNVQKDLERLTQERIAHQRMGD
- measurement_description: PROTAC activity at VHL/wild type ERalpha in ER-positive human MCF7 cells assessed as induction of ERalpha degradation at 1 uM incubated for 12 hrs by Western blot analysis
- Format: cell-based
Active and inactive are the calls of the source. The calls are words filed in the database; no cut-off is given here.
Reply using exactly one outcome from 1 = active, 0 = inactive

{"columns": ["compound", "group"],
 "data": [
  ["Cc1ncsc1-c1ccc(CNC(=O)[C@@H]2C[C@@H](O)CN2C(=O)[C@@H](NC(=O)CCCCCOc2ccc(N(CC(F)(F)F)S(=O)(=O)C3CC4OC3C(c3ccc(O)cc3)=C4c3ccc(O)cc3)cc2)C(C)(C)C)cc1 (stereo partly specified)", 1]
]}

Q: Status in this test for COc1ccc(N(CC(F)(F)F)S(=O)(=O)C2CC3OC2C(c2ccc(OCCCCCC(=O)N[C@H](C(=O)N4C[C@H](O)C[C@H]4C(=O)N[C@@H](C)c4ccc(-c5scnc5C)cc4)C(C)(C)C)cc2)=C3c2ccc(O)cc2)cc1 (stereo partly specified) ?
Ans: 0

Q: Status in this test for Cc1ncsc1-c1ccc([C@H](C)NC(=O)[C@@H]2C[C@@H](O)CN2C(=O)[C@@H](NC(=O)CCCCCOc2ccc(N(CC(F)(F)F)S(=O)(=O)C3CC4OC3C(c3ccc(O)cc3)=C4c3ccc(O)cc3)cc2)C(C)(C)C)cc1 (stereo partly specified) ?
Ans: 1

Q: Status in this test for CCN(c1ccc(OCCCCCC(=O)N[C@H](C(=O)N2C[C@H](O)C[C@H]2C(=O)N[C@@H](C)c2ccc(-c3scnc3C)cc2)C(C)(C)C)cc1)S(=O)(=O)C1CC2OC1C(c1ccc(O)cc1)=C2c1ccc(O)cc1 (stereo partly specified) ?
Ans: 1

Q: Status in this test for CCN(c1ccc(OCCCCCC(=O)N[C@H](C(=O)N2C[C@H](O)C[C@H]2C(=O)NCc2ccc(-c3scnc3C)cc2)C(C)(C)C)cc1)S(=O)(=O)C1CC2OC1C(c1ccc(O)cc1)=C2c1ccc(O)cc1 (stereo partly specified) ?
Ans: 1

Q: Status in this test for COc1ccc(N(CC(F)(F)F)S(=O)(=O)C2CC3OC2C(c2ccc(OCCCCCC(=O)N[C@H](C(=O)N4C[C@H](O)C[C@H]4C(=O)NCc4ccc(-c5scnc5C)cc4)C(C)(C)C)cc2)=C3c2ccc(O)cc2)cc1 (stereo partly specified) ?
Ans: 0
